# target under test: human muscarinic receptor M3 (Homo sapiens, UniProt P20309)
# Construct: cultured in Ham's F-12 medium
# Sequence (P20309 whole entry): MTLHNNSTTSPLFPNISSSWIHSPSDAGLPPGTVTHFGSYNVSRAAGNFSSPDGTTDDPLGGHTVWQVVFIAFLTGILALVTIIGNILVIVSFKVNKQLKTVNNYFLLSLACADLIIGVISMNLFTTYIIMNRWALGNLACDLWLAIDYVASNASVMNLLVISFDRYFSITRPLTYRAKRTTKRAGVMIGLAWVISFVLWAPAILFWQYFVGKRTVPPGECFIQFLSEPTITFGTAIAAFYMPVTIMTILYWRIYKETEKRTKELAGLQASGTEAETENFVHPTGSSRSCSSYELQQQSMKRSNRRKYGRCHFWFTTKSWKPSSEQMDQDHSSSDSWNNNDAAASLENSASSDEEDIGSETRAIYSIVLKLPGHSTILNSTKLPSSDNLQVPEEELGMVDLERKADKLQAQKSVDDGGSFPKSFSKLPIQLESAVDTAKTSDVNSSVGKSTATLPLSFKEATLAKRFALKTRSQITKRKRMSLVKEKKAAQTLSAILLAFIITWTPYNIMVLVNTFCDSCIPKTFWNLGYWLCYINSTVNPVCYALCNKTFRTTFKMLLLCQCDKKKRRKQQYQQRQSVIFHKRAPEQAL
# measurement notes: Dose-response inhibitory effect on M3 activity (IC50)
Peptide text beside a SMILES is read from it. * marks the point of attachment. Palmitoyl = CCCCCCCCCCCCCCCC(=O)*; Myristoyl = CCCCCCCCCCCCCC(=O)*
Please respond with yes (1) when measured IC50 is strictly beneath 40 µM, and with no (0) in all other cases.

>  <compound>
CCCCCCCCCCCCCC(=O)N[C@@H](CCCNC(=N)N)C(=O)N[C@H](C(=O)N[C@@H](CCSC)C(=O)N[C@@H](Cc1ccccc1)C(=O)N[C@@H](CCCCN)C(=O)N[C@@H](CCSC)C(=O)N[C@@H](Cc1ccccc1)C(=O)N[C@@H](CCCCN)C(=O)N[C@@H](CCCNC(=N)N)C(=O)N[C@@H](CC(=O)O)C(=O)N[C@@H](Cc1ccc(O)cc1)C(N)=O)C(C)C [Seq. ID No. 8 Myristoyl] (Myristoyl-RVMFKMFKRDY-NH2)

>  <group>
yes (1)

$$$$
>  <compound>
CCCCCCCCCCCCCC(=O)N[C@@H](CCCNC(=N)N)C(=O)N[C@H](C(=O)N[C@@H](CCSC)C(=O)N[C@@H](Cc1ccc(O)cc1)C(=O)N[C@@H](CCCCN)C(=O)N[C@@H](CCSC)C(=O)N[C@@H](CC(N)=O)C(=O)N[C@@H](CCCCN)C(=O)N[C@@H](CCCNC(=N)N)C(=O)N[C@@H](CC(=O)O)C(=O)N[C@@H](Cc1ccc(O)cc1)C(N)=O)C(C)C [Seq. ID No. 7 Myristoyl] (Myristoyl-RVMYKMNKRDY-NH2)

>  <group>
no (0)

$$$$
>  <compound>
CCCCCCCCCCCCCCCC(=O)N[C@@H](Cc1c[nH]c2ccccc12)C(=O)N[C@@H](CCSC)C(=O)N[C@@H](Cc1ccccc1)C(=O)N[C@@H](CC(C)C)C(=O)N[C@@H](CCCCN)C(N)=O [Seq. ID No. 5 Palmitoyl] (Palmitoyl-WMFLK-NH2)

>  <group>
no (0)

$$$$

Q. Check if IC50 falls below 40 µM for CCCCCCCCCCCCCCCC(=O)N[C@@H](Cc1c[nH]c2ccccc12)C(=O)N[C@@H](CCSC)C(=O)N[C@@H](CCCNC(=N)N)C(=O)N[C@@H](CC(C)C)C(=O)N[C@@H](CCCCN)C(N)=O [Seq. ID No. 2 Palmitoyl, Palm-WMRLK-NH2] (Palmitoyl-WMRLK-NH2) .
A. yes (1)

Q. Check if IC50 falls below 40 µM for CCCCCCCCCCCCCCCC(=O)N[C@@H](Cc1c[nH]c2ccccc12)C(=O)N[C@@H](CCSC)C(=O)N[C@@H](CC(N)=O)C(=O)N[C@@H](CC(C)C)C(=O)N[C@@H](CCCCN)C(=O)N[C@H](C(N)=O)[C@@H](C)O [Seq. ID No. 4 Palmitoyl] (Palmitoyl-WMNLKT-NH2) .
A. yes (1)

Q. Check if IC50 falls below 40 µM for CCCCCCCCCCCCCCCC(=O)N[C@@H](Cc1c[nH]c2ccccc12)C(=O)N[C@@H](CCSC)C(=O)N[C@@H](CCCNC(=N)N)C(=O)N[C@@H](CC(C)C)C(=O)N[C@@H](CCCCN)C(=O)N[C@@H](C)C(N)=O [Seq. ID No. 3 Palmitoyl] (Palmitoyl-WMRLKA-NH2) .
A. yes (1)

Q. Check if IC50 falls below 40 µM for CCCCCCCCCCCCCC(=O)N[C@@H](CCCNC(=N)N)C(=O)N[C@@H](CCSC)C(=O)N[C@@H](Cc1ccc(O)cc1)C(=O)N[C@@H](CCCCN)C(=O)N[C@@H](CCSC)C(=O)N[C@@H](CCSC)C(=O)N[C@@H](C)C(=O)NCC(=O)N[C@@H](CCSC)C(=O)N[C@@H](Cc1ccc(O)cc1)C(=O)N[C@@H](CC(C)C)C(=O)N[C@@H](CCCNC(=N)N)C(N)=O [Seq. ID No. 6 Myristoyl] (Myristoyl-RMYKMMAGMYLR-NH2) .
A. no (0)

Q. Check if IC50 falls below 40 µM for CCCCCCCCCCCCCCCC(=O)N[C@@H](Cc1c[nH]c2ccccc12)C(=O)N[C@@H](CCSC)C(=O)N[C@@H](CCCNC(=N)N)C(=O)N[C@@H](CC(C)C)C(N)=O [Seq. ID No. 1 Palmitoyl] (Palmitoyl-WMRL-NH2) .
A. yes (1)
